experiment: logP by HPLC on reversed-phase columns (EEC directive 79/831 Annex V.A8); type: physicochemical; conditions: reversed-phase HPLC column; [b] LC-MS determination in the acidic range at pH 2.7, 0.1% aqueous formic acid and acetonitrile; read-out: log p
property_name: chromatographic logP
Lab note: record just the number, no unit beside it.

QUERY: Request the reported chromatographic logP associated with Br.CCN(C)C=Nc1cc(C)c(Oc2nc(Cc3ccc(Cl)cc3)ns2)cc1C [Example 2, hydrobromide]
RESULT: 1.83

----------
test: logP by HPLC on reversed-phase columns (EEC directive 79/831 Annex V.A8); type: physicochemical; details: [b] LC-MS determination in the acidic range at pH 2.7, 0.1% aqueous formic acid and acetonitrile; read-out: log p
property_name: chromatographic logP
Lab note: record just the number, no unit beside it.

QUERY: Request the reported chromatographic logP associated with `CCN(C)C=Nc1cc(C)c(Oc2nc(Cc3ccc(Cl)cc3)ns2)cc1C`
RESULT: 2.03
